Tested on: Mus musculus
Assay: Ratio of drug to control in induction of cytosolic Glutathione S-transferase activity per mg of protein in A/J mouse small bowel mucosa at 20 mg, po for once every 2 days for total three doses measured after 24 hrs of last dose
Assay type: functional
# Ratio annotations
Endpoint Name: Ratio

{"columns": ["Compound", "Endpoint Name", "Reading"],
 "data": [
  ["C=C1CC[C@@H]2O[C@]2(C)CC[C@@H]2[C@@H]1CC2(C)C", "Ratio", 4.8],
  ["C=CCc1ccc(O)c(OC)c1 [EUGENOL]", "Ratio", 2.36],
  ["C=C1CC/C=C(\\C)CC[C@@H]2[C@@H]1CC2(C)C [BETA-CARYOPHYLLENE]", "Ratio", 3],
  ["C/C1=C\\CC[C@@]2(C)O[C@@H]2CC(C)(C)/C=C/C1", "Ratio", 3.24],
  ["C/C1=C\\CC/C(C)=C/CC(C)(C)/C=C/C1 [ALPHA-HUMULONE]", "Ratio", 2.52]
]}

---

# Activity annotations
System: Mus musculus
Experiment: Induction of cytosolic Glutathione S-transferase activity per mg of protein in A/J mouse forestomach at 20 mg, po for once every 2 days for total three doses measured after 24 hrs of last dose
Assay type: functional, Stomach

{"columns": ["Query Smiles", "Activity"],
 "data": [
  ["C=C1CC/C=C(\\C)CC[C@@H]2[C@@H]1CC2(C)C", "0.77 µmol/min"],
  ["C/C1=C\\CC/C(C)=C/CC(C)(C)/C=C/C1", "0.63 µmol/min"],
  ["C=C1CC[C@@H]2O[C@]2(C)CC[C@@H]2[C@@H]1CC2(C)C", "0.59 µmol/min"],
  ["C=CCc1ccc(O)c(OC)c1", "0.75 µmol/min"],
  ["C/C1=C\\CC[C@@]2(C)O[C@@H]2CC(C)(C)/C=C/C1", "0.77 µmol/min"]
]}

These data points were gathered from ChEMBL document CHEMBL1149727.
